Origin of values: patent US20220177587A1

- STUDY TARGET: human PD-L1 (human) (UniProt Q9NZQ7)
- Sequence (Q9NZQ7 19-290): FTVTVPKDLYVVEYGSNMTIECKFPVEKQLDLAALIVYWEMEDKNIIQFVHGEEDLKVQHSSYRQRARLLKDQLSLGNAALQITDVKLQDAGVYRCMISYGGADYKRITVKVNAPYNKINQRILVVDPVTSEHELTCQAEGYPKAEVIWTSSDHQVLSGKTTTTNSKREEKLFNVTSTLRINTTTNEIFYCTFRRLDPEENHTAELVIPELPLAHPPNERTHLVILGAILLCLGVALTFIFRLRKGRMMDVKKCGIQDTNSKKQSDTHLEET
- ASSAY COMMENT: flow cytometry, CHO cells expressing huPD-L1
PROPERTY: MFI at 33.3 nM (MFI)

I. variant CD80 IgV-Fc Q33L/E35D/N48K/L85Q/L97Q (Fc fusion) VIHVTKEVKEVATLSCGHNVSVEELAQTRIYWLKDKKMVLTMMSGDMKIWPEYKNRTIFDITNNLSIVILALRPSDEGTYECVVQKYEKDAFKREHQAEVTLSVKAD
II. variant CD80 IgV-Fc H18Y/A26E/Q33L/E35D/M47L/L85Q (Fc fusion) VIHVTKEVKEVATLSCGYNVSVEELEQTRIYWLKDKKMVLTMMSGDLNIWPEYKNRTIFDITNNLSIVILALRPSDEGTYECVVQKYEKDAFKREHLAEVTLSVKAD
III. variant CD80 IgV-Fc R29H/E35D/M43V/M47I/I49V (Fc fusion) VIHVTKEVKEVATLSCGHNVSVEELAQTHIYWQKDKKMVLTMVSGDINVWPEYKNRTIFDITNNLSIVILALRPSDEGTYECVVLKYEKDAFKREHLAEVTLSVKAD
IV. variant CD80 IgV-Fc E35D/N48K (Fc fusion) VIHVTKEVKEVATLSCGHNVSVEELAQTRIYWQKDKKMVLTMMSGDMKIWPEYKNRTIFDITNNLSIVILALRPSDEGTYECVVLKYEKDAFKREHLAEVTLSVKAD
Problem: Please rank everything listed above by MFI at 33.3 nM, with the minimum value first. # format: label list in the order the request specifies
Result: III, IV, I, II

1. variant CD80 IgV-Fc H18Y/A26E/E35D/M47L/L85Q/D90G (Fc fusion) VIHVTKEVKEVATLSCGYNVSVEELEQTRIYWQKDKKMVLTMMSGDLNIWPEYKNRTIFDITNNLSIVILALRPSDEGTYECVVQKYEKGAFKREHLAEVTLSVKAD
2. variant CD80 IgV-Fc E35D/A71G (Fc fusion) VIHVTKEVKEVATLSCGHNVSVEELAQTRIYWQKDKKMVLTMMSGDMNIWPEYKNRTIFDITNNLSIVILGLRPSDEGTYECVVLKYEKDAFKREHLAEVTLSVKAD
3. variant CD80 IgV-Fc E35D/D46V/M47L/V68M/L85Q/E88D (Fc fusion) VIHVTKEVKEVATLSCGHNVSVEELAQTRIYWQKDKKMVLTMMSGVLNIWPEYKNRTIFDITNNLSIMILALRPSDEGTYECVVQKYDKDAFKREHLAEVTLSVKAD
4. variant CD80 IgV-Fc E35D/D46E/M47V/L97Q (Fc fusion) VIHVTKEVKEVATLSCGHNVSVEELAQTRIYWQKDKKMVLTMMSGEVNIWPEYKNRTIFDITNNLSIVILALRPSDEGTYECVVLKYEKDAFKREHQAEVTLSVKAD
5. variant CD80 IgV-Fc M47V/N48K/K89N (Fc fusion) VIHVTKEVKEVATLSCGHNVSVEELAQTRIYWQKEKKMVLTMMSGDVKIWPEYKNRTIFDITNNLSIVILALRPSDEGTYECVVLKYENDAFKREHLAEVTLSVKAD
Problem: Task for the reader: rank each entry by its MFI at 33.3 nM, from the minimum upward. # format: label list in the order the request specifies
Result: 5, 4, 2, 1, 3
(5: 2370 MFI, 4: 19500 MFI, 2: 34100 MFI, 1: 52400 MFI, 3: 137000 MFI)

a. variant CD80 IgV-Fc E35D/M47I/T62S/L85Q (Fc fusion) VIHVTKEVKEVATLSCGHNVSVEELAQTRIYWQKDKKMVLTMMSGDINIWPEYKNRTIFDISNNLSIVILALRPSDEGTYECVVQKYEKDAFKREHLAEVTLSVKAD
b. variant CD80 IgV-Fc D46V/M47L/V68M (Fc fusion) VIHVTKEVKEVATLSCGHNVSVEELAQTRIYWQKEKKMVLTMMSGVLNIWPEYKNRTIFDITNNLSIMILALRPSDEGTYECVVLKYEKDAFKREHLAEVTLSVKAD
Problem: Larger number for MFI at 33.3 nM: a , or b ? Answer with the label corresponding to your selection.
Result: a

1. variant CD80 IgV-Fc E35D/T41S/M43I/M47V/A71G (Fc fusion) VIHVTKEVKEVATLSCGHNVSVEELAQTRIYWQKDKKMVLSMISGDVNIWPEYKNRTIFDITNNLSIVILGLRPSDEGTYECVVLKYEKDAFKREHLAEVTLSVKAD
2. variant CD80 IgV-Fc A26E/E35D/M43T/M47L/L85Q/R94Q (Fc fusion) VIHVTKEVKEVATLSCGHNVSVEELEQTRIYWQKDKKMVLTMTSGDLNIWPEYKNRTIFDITNNLSIVILALRPSDEGTYECVVQKYEKDAFKQEHLAEVTLSVKAD
Problem: Larger number for MFI at 33.3 nM: 1 , or 2 ? Answer with the label corresponding to your selection.
Result: 2
